Source of measurements: PubChem BioAssay AID743351

System: M. tuberculosis BioA-TetON overexpression strain, growth IC90
Assay: PubChem AID 743351
Activity calls are given as the source filed them. The rule behind the calls is not given here.
experimental-readout: IC90

Prompt: Look up IC90 for this compound: COc1ccc(NC(=O)N2CC[C@@H]3[C@@H](CO)N(C)c4ccc(-c5cccc(F)c5)cc4[C@@H]32)cc1
Response: > 50 µM (inactive)

Prompt: Look up IC90 for this compound: CC(=O)c1ccc(NCCNC(=O)c2ccc3c(c2)OCO3)cc1
Response: > 50 µM (inactive)

Prompt: Look up IC90 for this compound: CN1c2ccc(-c3cccc(F)c3)cc2[C@H]2[C@H](CCN2C(=O)c2ccc3c(c2)OCO3)[C@@H]1CO
Response: > 50 µM (inactive)

Prompt: Look up IC90 for this compound: COC(=O)CCCCCCC(=O)N1CC[C@@H]2[C@@H](CO)N(C)c3ccc(-c4cccc(F)c4)cc3[C@@H]21
Response: > 50 µM (inactive)

Prompt: Look up IC90 for this compound: CN1c2ccc(-c3cccc(F)c3)cc2[C@@H]2[C@@H](CCN2C(=O)c2ccc3c(c2)OCO3)[C@@H]1CO
Response: > 50 µM (inactive)

Prompt: Look up IC90 for this compound: CCCNC(=O)N1CC[C@@H]2[C@@H](CO)N(C)c3ccc(-c4ccc(F)cc4)cc3[C@@H]21
Response: > 50 µM (inactive)

Prompt: Look up IC90 for this compound: COc1ccccc1NC(=O)N1CC[C@@H]2[C@@H](CO)N(C)c3ccc(-c4cccc(F)c4)cc3[C@@H]21
Response: > 50 µM (inactive)

Prompt: Look up IC90 for this compound: CNC(=O)c1ccc(N2CCN(C(=O)c3ccc4c(c3)OCO4)CC2)cc1
Response: > 50 µM (inactive)

Prompt: Look up IC90 for this compound: COCC(=O)N1CC[C@@H]2[C@@H](CO)N(C)c3ccc(-c4cccc(F)c4)cc3[C@@H]21
Response: > 50 µM (inactive)

Prompt: Look up IC90 for this compound: CNS(=O)(=O)c1ccc(N2CCN(C(=O)c3ccc4c(c3)OCO4)CC2)cc1
Response: > 50 µM (inactive)

Prompt: Look up IC90 for this compound: COc1ccccc1C(=O)N1CCN(c2ccc(C(C)=O)cc2)CC1
Response: > 50 µM (inactive)

Prompt: Look up IC90 for this compound: CC(=O)c1ccc(N2CCN(C(=O)c3ccc4c(c3)OCO4)[C@H](C)C2)cc1
Response: > 50 µM (inactive)

Prompt: Look up IC90 for this compound: CN1c2ccc(-c3cccc(F)c3)cc2[C@H]2[C@H](CCN2C(=O)Cc2cccnc2)[C@H]1CO
Response: > 50 µM (inactive)

Prompt: Look up IC90 for this compound: CC(=O)c1ccc(N2CCN(C(=O)c3ccccc3F)CC2)cc1
Response: > 50 µM (inactive)

Prompt: Look up IC90 for this compound: CN1c2ccc(-c3ccc(F)cc3)cc2[C@H]2[C@H](CCN2C(=O)Cc2cccnc2)[C@H]1CO
Response: > 50 µM (inactive)

Prompt: Look up IC90 for this compound: CN1c2ccc(-c3cccc(F)c3)cc2[C@H]2[C@H](CCN2C(=O)Nc2ccccc2F)[C@H]1CO
Response: > 50 µM (inactive)

Prompt: Look up IC90 for this compound: CC(=O)c1ccc(N2CC3(CN(C(=O)c4ccc5c(c4)OCO5)C3)C2)cc1
Response: > 50 µM (inactive)
